Below, each of the compounds is paired with its reported relative tumor weight Wt/Wi Day 17 value.
System: MV522 lung carcinoma xenograft
Assay: Test B in vivo MV522 lung carcinoma xenograft
Settings: i.p. QD×5 on days 10-14; day ten = 1.0; dose: 1 14 mg/kg, 2 35 mg/kg, 13 32 mg/kg, 14 28 mg/kg

Examples with their reported relative tumor weight Wt/Wi Day 17 follow.
CC(=O)N[C@@H](CSCC1=C(C)C=C2C(=O)C(C)(O)C3(CC3)C(C)=C21)C(=O)O (stereo partly shown) [Compound 13]: 2.3 ± 0.5
CC1=C2C(=CC(CO)=C2CO)C(=O)C(C)(O)C12CC2 (stereo not shown) [Compound 2]: 2.1 ± 0.2
CC1=C2C=C(CO)C=C2C(=O)C(C)(O)C12CC2 (stereo not shown) [Compound 1]: 1.4 ± 0.7

Please turn your attention to the following entry.
For the compound shown here, CC(=O)N[C@@H](CSCC1=C(C)C=C2C(=O)C(C)(O)C3(CC3)C(C)=C21)C(=O)N[C@H](C)c1ccccc1 (stereo partly shown) [Compound 14] , give the reported relative tumor weight Wt/Wi Day 17.
3.2 ± 0.6
